Consider the following compounds; for each one, report its IC50.
experimental.system: human HPK1 protein (Homo sapiens, UniProt Q92918)
Construct: recombinant human HPK1 protein (a.a. 1-346) was expressed in Sf9 insect cells; GST (N); purchased Signalchem M23-11G; host or cells: Sf9 insect cells (baculovirus)
Sequence (Q92918 1-346): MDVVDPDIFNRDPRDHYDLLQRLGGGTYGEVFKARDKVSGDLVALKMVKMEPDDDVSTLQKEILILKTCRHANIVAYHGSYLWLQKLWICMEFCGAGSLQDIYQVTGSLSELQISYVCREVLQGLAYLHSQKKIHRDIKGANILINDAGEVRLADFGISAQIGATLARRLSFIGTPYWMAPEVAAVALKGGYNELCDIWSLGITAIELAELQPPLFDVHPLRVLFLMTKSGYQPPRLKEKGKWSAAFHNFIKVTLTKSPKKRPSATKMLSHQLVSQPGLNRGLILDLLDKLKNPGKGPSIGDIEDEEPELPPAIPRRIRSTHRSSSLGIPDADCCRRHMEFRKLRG
procedure.details: Human HPK1 protein TR-FRET assay
Type: biochemical
measurement.parameters: 1 mM ATP, Table 20
Experimental: Exemplary compounds from the above Examples were tested for ability to inhibit HPK1 using a human HPK1 protein TR-FRET Assay. Assay procedures and results are described below. […] The fluorescence resonance energy transfer (FRET) signal was measured on an Envision plate reader: Excitation filter=340 nm, APC emission=665 nm, Europium emission=615 nm, dichroic mirror=D400/D630, delay time=100 μs, and integration time=200 μs. […]

The value of IC50 measured for the compound CCN1CCN(Cc2ccc(NC(=O)N3Cc4cc(Oc5ccnc6[nH]c(=O)[nH]c56)cnc4C(C)C3)cc2C(F)(F)F)CC1 (single isomer, unassigned) turned out to be < 500 nM

The value of IC50 measured for the compound CCC1CN(C(=O)Nc2ccc(CN3CCN(CC)CC3)c(C(F)(F)F)c2)Cc2cc(Oc3ncnc4[nH]c(C)cc34)cnc21 (stereo not drawn) [XIV-3] turned out to be < 500 nM

The value of IC50 measured for the compound CC[C@H]1CN(C(=O)Nc2ccc(CN3CCN(C)CC3)c(C(F)(F)F)c2)Cc2cc(Oc3ncnc4[nH]c(C(=O)NC)cc34)cnc21 turned out to be < 500 nM

The value of IC50 measured for the compound C[C@H]1c2cc(Oc3ccnc4[nH]c(CO)cc34)ccc2CCN1C(=O)Nc1ccc(CN2CCN(C)CC2)c(C(F)F)c1 turned out to be < 500 nM

The value of IC50 measured for the compound CCN1CCN(Cc2ccc(NC(=O)N3Cc4cc(Oc5ccnc6[nH]c(C)nc56)cnc4C(C)C3)cc2C(F)(F)F)CC1 (single isomer, unassigned) turned out to be 5000 to 10000 nM

The value of IC50 measured for the compound CC[C@H]1CN(C(=O)Nc2ccc(CN3CCN(C)CC3)c(C(F)(F)F)c2)Cc2cc(Oc3ccnc4[nH]c(-c5n[nH]c(=O)o5)cc34)cnc21 turned out to be < 500 nM

---

experimental.system: human HPK1 protein (Homo sapiens, UniProt Q92918)
Construct: recombinant human HPK1 protein (a.a. 1-346) was expressed in Sf9 insect cells; GST (N); purchased Signalchem M23-11G; host or cells: Sf9 insect cells (baculovirus)
procedure.details: Human HPK1 protein TR-FRET assay
Type: biochemical
measurement.parameters: 1 mM ATP, Table 19
pIC50: −log10 of the molar value.
Consider the following compounds; for each one, report its pIC50.

The value of pIC50 measured for the compound CCN1CCN(Cc2ccc(NC(=O)N3CCc4ncc(Oc5ccnc6[nH]ccc56)cc4C3C)cc2C(F)(F)F)CC1 (stereo not shown) [compound 9] turned out to be > 6.30

The value of pIC50 measured for the compound CCc1cc2c(Oc3ccc4c(c3)[C@H](C)N(C(=O)Nc3ccc(CN5CCN(CC)CC5)c(C(F)(F)F)c3)CC4)ccnc2[nH]1 [V-22] turned out to be > 6.30

The value of pIC50 measured for the compound CCN1CCN(Cc2ccc(NC(=O)N3Cc4cc(Oc5ccnc6[nH]ncc56)cnc4C(C)C3)cc2C(F)(F)F)CC1 (stereo not shown) [VII-15] turned out to be > 6.30

The value of pIC50 measured for the compound C[C@H]1c2cc(Oc3ccnc4[nH]ccc34)ccc2CCN1C(=O)Nc1ccc(OC2CCNCC2)c(C(F)F)c1 [V-14] turned out to be 5.30 to 6.30

The value of pIC50 measured for the compound CCN1CCN(Cc2ccc(NC(=O)N3CCc4ccc(Oc5ncnn6cc(C#N)cc56)cc4[C@@H]3C)cc2C(F)(F)F)CC1 [V-9] turned out to be > 6.30

The value of pIC50 measured for the compound CCN1CCN(Cc2ccc(NC(=O)N3Cc4cc(Oc5ccnc6[nH]ccc56)ccc4C4(CC4)C3)cc2C(F)(F)F)CC1 [IV-23] turned out to be > 6.30

The value of pIC50 measured for the compound Cc1cc2c(Oc3ccc4c(c3)[C@H](C)N(C(=O)Nc3cnc(OC5CCN(C)CC5O)c(C(F)(F)F)c3)CC4)ccnc2[nH]1 (stereo in doubt) [VI-8] turned out to be > 6.30

---

experimental.system: human HPK1 protein (Homo sapiens, UniProt Q92918)
Construct: recombinant human HPK1 protein (a.a. 1-346) was expressed in Sf9 insect cells; GST (N); purchased Signalchem M23-11G; host or cells: Sf9 insect cells (baculovirus)
procedure.details: Human HPK1 protein TR-FRET assay
Format: biochemical
measurement.parameters: 1 mM ATP, Table 20
pIC50: −log10 of the molar value.
Consider the following molecules; for each one, report its pIC50.

The value of pIC50 measured for the molecule CN1CCN(Cc2ncc(NC(=O)N3CCc4ccc(Oc5c(F)cnc6[nH]c(-c7cnn(C)c7)cc56)cc4C3)cc2C(F)(F)F)CC1 [XII-1] turned out to be > 6.30

The value of pIC50 measured for the molecule C[C@H]1CN(C(=O)Nc2ccc(CN3CCN(C)CC3)c(C(F)(F)F)c2)Cc2cc(Oc3c(F)cnc4[nH]c(-c5cnn(C)c5)cc34)ccc21 [XII-12] turned out to be > 6.30

The value of pIC50 measured for the molecule CC[C@H]1CN(C(=O)Nc2ccc(CN3CCN(C)CC3)c(C(F)(F)F)c2)Cc2cc(Oc3ccnc4[nH]c(C5(O)COC5)cc34)cnc21 [XIV-51] turned out to be > 6.30

---

experimental.system: human HPK1 protein (Homo sapiens, UniProt Q92918)
Construct: recombinant human HPK1 protein (a.a. 1-346) was expressed in Sf9 insect cells; GST (N); purchased Signalchem M23-11G; host or cells: Sf9 insect cells (baculovirus)
procedure.details: Human HPK1 protein TR-FRET assay
Assay type: biochemical
measurement.parameters: 1 mM ATP, Table 19
recorded.endpoint: IC50

The value of IC50 measured for the compound CCN1CCN(Cc2ccc(NC(=O)N3CCc4cc(F)c(Oc5ccnc6[nH]c(C)cc56)cc4C3C)cc2C(F)(F)F)CC1 (stereo not drawn) [IV-26] turned out to be 500 to 5000 nM

The value of IC50 measured for the compound Cc1cc2c(Oc3cnc4c(c3)CN(C(=O)Nc3cnc(OC5CCN(C)CC5)c(C(F)(F)F)c3)CC4C)ccnc2[nH]1 (single isomer, unassigned) [VII-7] turned out to be < 500 nM

The value of IC50 measured for the compound CCN1CCN(Cc2ccc(NC(=O)N3CCc4ccc(Oc5ccnc6[nH]c(C)cc56)cc4C3)cc2C(F)(F)F)CC1 [III-4] turned out to be < 500 nM

The value of IC50 measured for the compound CCN1CCN(Cc2ccc(NC(=O)N3Cc4cc(Oc5ccnc6[nH]c(C)cc56)cnc4C(C)C3)cc2C(F)(F)F)CC1 (single isomer, unassigned) [VII-5] turned out to be < 500 nM

The value of IC50 measured for the compound CCN1CCN(Cc2ccc(NC(=O)N3CCc4ccc(Oc5cn[nH]c5)cc4C3)cc2C(F)(F)F)CC1 [II-21] turned out to be 500 to 5000 nM

The value of IC50 measured for the compound CCN1CCN(Cc2ccc(NC(=O)N3Cc4cc(Nc5ccnc(NC)c5)cnc4C(C)C3)cc2C(F)(F)F)CC1 (single isomer, unassigned) [IX-2] turned out to be 500 to 5000 nM

---

experimental.system: human HPK1 protein (Homo sapiens)
Construct: recombinant human HPK1 protein (a.a. 1-346) was expressed in Sf9 insect cells; GST (N); purchased Signalchem M23-11G; host or cells: Sf9 insect cells (baculovirus)
procedure.details: Human HPK1 protein TR-FRET assay
Assay type: biochemical
measurement.parameters: 1 mM ATP, Table 20
Protocol: Exemplary compounds from the above Examples were tested for ability to inhibit HPK1 using a human HPK1 protein TR-FRET Assay. Assay procedures and results are described below. […] The fluorescence resonance energy transfer (FRET) signal was measured on an Envision plate reader: Excitation filter=340 nm, APC emission=665 nm, Europium emission=615 nm, dichroic mirror=D400/D630, delay time=100 μs, and integration time=200 μs. […]
pIC50: −log10 of the molar value.
Consider the following compounds; for each one, report its pIC50.

The value of pIC50 measured for the compound CCN1CCN(Cc2ccc(NC(=O)N3Cc4cc(Oc5ccnc6[nH]ccc56)cnc4C[C@@H]3C)cc2C(F)(F)F)CC1 [XVIII-18] turned out to be > 6.30

The value of pIC50 measured for the compound CC[C@H]1CN(C(=O)Nc2ccc(CN3CCN(C)CC3)c(C(F)(F)F)c2)Cc2cc(Oc3c(F)cnc4[nH]c(C(=O)N(C)C)cc34)cnc21 [XIV-143] turned out to be > 6.30

The value of pIC50 measured for the compound CC[C@H]1CN(C(=O)Nc2ccc(CN3CCN(C)CC3)c(C(F)(F)F)c2)Cc2cc(Oc3ccnc4[nH]c(C#N)cc34)ccc21 [XV-28] turned out to be > 6.30
